Method Description: Single dose oral PK study in male Sprague Dawley rats (plasma by LC-MS/MS)
Assay type: in vivo
Experimental Setup: male, Sprague-Dawley, rat, in vivo, po, 5 mg/kg, PRX-P5-006 oral 5 mg/kg, mean; read-out: Cmax of PRX-P5-006
Observable: Cmax

                                   compound  reported_result
0  CCCCCCCCCCCCCCCCCC(=O)OC(C)OC(=O)N(CC)C1C2CCC(C2)C1c1ccccc1 (single isomer, unassigned) [PRX-P5-006]       61.5 ng/mL

* * *

Method Description: Single dose oral PK study in male Sprague Dawley rats (plasma by LC-MS/MS)
Type: in vivo
Experimental Setup: male, Sprague Dawley, rat, in vivo; PRX-P6-011 oral 5 mg/kg b.w., 24.00 h, mean; read-out: Plasma concentrations of PRX-P6-011
Observable: concentration at 24 h (ng/mL)

                                   compound  unit_label  reported_result
0  CCN(C(=O)[C@@H](NC(=O)[C@@H](N)C(C)C)C(C)C)C1C2CCC(C2)C1c1ccccc1 (single isomer, unassigned) [PRX-P6-011]       ng/mL                0
